// data source = ChEMBL document CHEMBL1137558

# protocol: Anticancer activity against human NCI60 cells
# Type: functional
# condition.notes: read-out: LC50 (the source's name)
experimental.endpoint: CC50

In: Look at this compound and give its reported CC50. `O=C(c1ccco1)c1c(C(F)(F)F)nc2ccc(C(F)(F)F)cc2[n+]1[O-]`
Out: > 100 µM

In: Look at this compound and give its reported CC50. `O=C(c1ccco1)c1nc2ccc(C(F)(F)F)cc2[n+]([O-])c1C(F)(F)F`
Out: > 100 µM

In: Look at this compound and give its reported CC50. `O=C(c1ccco1)c1nc2cc(C(F)(F)F)ccc2[n+]([O-])c1C(F)(F)F`
Out: > 100 µM

###

# protocol: Anticancer activity against renal cancer cells
# Assay type: functional
# condition.notes: Homo sapiens, Cancer cell lines
The threshold is 300 nM. Values of GI50 beneath it are tagged true (1); values meeting or exceeding it are tagged false (0).

In: Determine if `O=C(c1ccco1)c1c(C(F)(F)F)[n+]([O-])c2cc(Cl)c(Cl)cc2[n+]1[O-]` shows GI50 strictly lower than 300 nM.
Out: false (0)

In: Determine if `O=C(c1cccs1)c1c(C(F)(F)F)[n+]([O-])c2ccc(F)cc2[n+]1[O-]` shows GI50 strictly lower than 300 nM.
Out: false (0)

In: Determine if `O=C(c1cccs1)c1c(C(F)(F)F)[n+]([O-])c2ccc(Cl)cc2[n+]1[O-]` shows GI50 strictly lower than 300 nM.
Out: true (1)

In: Determine if `O=C(c1ccccc1)c1c(C(F)(F)F)[n+]([O-])c2ccc(C(F)(F)F)cc2[n+]1[O-]` shows GI50 strictly lower than 300 nM.
Out: false (0)

In: Determine if `Cc1ccc2c(c1)[n+]([O-])c(C(=O)c1ccco1)c(C(F)(F)F)[n+]2[O-]` shows GI50 strictly lower than 300 nM.
Out: false (0)

###

Please go through the items and note down their GI50.
# protocol: Anticancer activity against prostate cancer cells
# Assay type: functional
# condition.notes: Homo sapiens, Cancer cell lines
Give just the number in µM; leave the unit off.

In: Look at this molecule and give its reported GI50. `Cc1ccc2c(c1)[n+]([O-])c(C(=O)c1cccs1)c(C(F)(F)F)[n+]2[O-]`
Out: 0.89

In: Look at this molecule and give its reported GI50. `O=C(c1cccs1)c1c(C(F)(F)F)[n+]([O-])c2ccc(F)cc2[n+]1[O-]`
Out: 1.51

In: Look at this molecule and give its reported GI50. `O=C(c1ccco1)c1nc2cc(C(F)(F)F)ccc2nc1C(F)(F)F`
Out: 100

In: Look at this molecule and give its reported GI50. `O=C(c1cccs1)c1c(C(F)(F)F)[n+]([O-])c2ccccc2[n+]1[O-]`
Out: 0.4

###

Please go through the items and note down their CC50.
# protocol: Anticancer activity against human NCI60 cells
# Assay type: functional
# condition.notes: read-out: LC50 (the source's name)
Give just the number in µM; leave the unit off.

In: Look at this compound and give its reported CC50. `O=C(c1ccc2ccccc2c1)c1c(C(F)(F)F)[n+]([O-])c2cc(Cl)c(Cl)cc2[n+]1[O-]`
Out: 6.17

In: Look at this compound and give its reported CC50. `O=C(c1cccs1)c1c(C(F)(F)F)[n+]([O-])c2cc(Cl)c(Cl)cc2[n+]1[O-]`
Out: 11

In: Look at this compound and give its reported CC50. `O=C(c1ccc2ccccc2c1)c1c(C(F)(F)F)[n+]([O-])c2ccc(C(F)(F)F)cc2[n+]1[O-]`
Out: 5.5

In: Look at this compound and give its reported CC50. `O=C(c1ccc2ccccc2c1)c1c(C(F)(F)F)[n+]([O-])c2cc(C(F)(F)F)ccc2[n+]1[O-]`
Out: 9.33

In: Look at this compound and give its reported CC50. `O=C(c1ccco1)c1c(C(F)(F)F)[n+]([O-])c2cc(Cl)c(Cl)cc2[n+]1[O-]`
Out: 11

In: Look at this compound and give its reported CC50. `Cc1ccc2c(c1)[n+]([O-])c(C(=O)c1cccs1)c(C(F)(F)F)[n+]2[O-]`
Out: 33.1

In: Look at this compound and give its reported CC50. `Cc1ccc2c(c1)[n+]([O-])c(C(=O)c1ccco1)c(C(F)(F)F)[n+]2[O-]`
Out: 17.8

In: Look at this compound and give its reported CC50. `O=C(c1cccs1)c1c(C(F)(F)F)[n+]([O-])c2cc(C(F)(F)F)ccc2[n+]1[O-]`
Out: 1.48

In: Look at this compound and give its reported CC50. `O=C(c1ccco1)c1c(C(F)(F)F)[n+]([O-])c2cc(C(F)(F)F)ccc2[n+]1[O-]`
Out: 3.89

In: Look at this compound and give its reported CC50. `O=C(c1cccs1)c1c(C(F)(F)F)[n+]([O-])c2ccccc2[n+]1[O-]`
Out: 11.2

In: Look at this compound and give its reported CC50. `O=C(c1ccco1)c1c(C(F)(F)F)[n+]([O-])c2ccccc2[n+]1[O-]`
Out: 26.9
